Target or test system: KRAS protein containing G12D mutation (Homo sapiens (Human), UniProt P01116, G12D)
Sequence (P01116 other isoform, or with tags, fused parts or gaps G12D (already in the parent)): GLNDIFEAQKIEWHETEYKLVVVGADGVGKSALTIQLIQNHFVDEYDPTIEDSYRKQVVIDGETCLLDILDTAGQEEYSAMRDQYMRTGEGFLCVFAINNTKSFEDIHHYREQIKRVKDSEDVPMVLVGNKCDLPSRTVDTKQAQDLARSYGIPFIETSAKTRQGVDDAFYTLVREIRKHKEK
Protocol: SOS-catalyzed nucleotide exchange assay (GNE), TR-FRET
Format: biochemical
Condition summary: biotinylated KRAS G12D, SOS and GTP, 60-minute incubation
Where a name gives a salt, the structure may show the parent alone.
Labelling: IC50 reported below 900 nM becomes t; at or above becomes f.

{"Compound": "C#Cc1cccc2cc(O)c(Cl)c(-c3c(F)cc4c(N5CC6CC[C@@](C)(C5)N6)nc(OC[C@@]56CCCN5C[C@H](F)C6)nc4c3F)c12 (single isomer, unassigned) [Ex. 143a]", "Assigned label": "t"}
{"Compound": "CC[C@H]1[C@@H]2CC[C@@H](CN2)N1c1nc(OCC2(CN(C)C)CC2)nc2c(F)c(-c3cc(O)cc4ccccc34)c(F)cc12", "Assigned label": "f"}
{"Compound": "CN(C)CC1(COc2nc(N3CC4CCC(C3)N4)c3cc(Cl)c(-c4c5ccccc5cc5[nH]c(=O)[nH]c45)c(F)c3n2)CC1", "Assigned label": "f"}
{"Compound": "Cc1cc2[nH]nc(C)c2c(-c2c(F)cc3c(N4CC5CCC(C4)N5)nc(OC[C@@]45CCCN4C[C@H](F)C5)nc3c2F)c1OC(F)F (single isomer, unassigned) [Ex. 233a]", "Assigned label": "f"}
{"Compound": "C#Cc1cccc2cc(O)cc(-c3c(F)cc4c(N5C[C@]6(C)CC[C@H]5CN6)nc(OC[C@@]56CCCN5C[C@H](F)C6)nc4c3F)c12", "Assigned label": "t"}
{"Compound": "CN(C)CC1(COc2nc(N3C[C@@]4(C)CC[C@H]3CN4)c3cc(Cl)c(-c4cc(O)cc5ccccc45)c(F)c3n2)CC1 (single isomer, unassigned) [Example 38a]", "Assigned label": "t"}
{"Compound": "Oc1cc(-c2c(F)cc3c(N4CC5CCC(C4)N5)nc(N4CC5(CCCN5)C4)nc3c2F)c2ccccc2c1", "Assigned label": "f"}
{"Compound": "Cc1cc2[nH]nc(C)c2c(-c2c(F)cc3c(N4CC5CCC(C4)N5)nc(OC[C@@]45CCCN4C[C@H](F)C5)nc3c2F)c1C(F)(F)F (single isomer, unassigned) [Ex. 128a]", "Assigned label": "t"}
{"Compound": "Cc1cc2cn(C)nc2c(-c2c(F)cc3c(N4C[C@H]5CC[C@@H](C4)N5)nc(OC[C@@]45CCCN4C[C@H](F)C5)nc3c2F)c1C(F)(F)F [251b]", "Assigned label": "f"}
{"Compound": "C[C@]12CCC(CN(c3nc(OCC45CCCN4CC(C(F)F)C5)nc4c(F)c(-c5cc(O)cc6cccc(Cl)c56)c(F)cc34)C1)N2 (single isomer, unassigned) [Ex. 173-1b]", "Assigned label": "t"}
{"Compound": "C#Cc1cccc2cccc(-c3c(F)cc4c(N5CC6(C)CCC(C)(C5)N6)nc(OC[C@@]56CCCN5C[C@H](F)C6)nc4c3F)c12 (single isomer, unassigned) [Ex. 190b, TFA]", "Assigned label": "t"}
